Biological target: T1, soluble human RGMa (human, UniProt Q96B86 48-422, limits assumed)
T1 construct: Soluble antigen in BIAcore; also called huRGMa; repulsive guidance molecule A
T1 sequence (looked up): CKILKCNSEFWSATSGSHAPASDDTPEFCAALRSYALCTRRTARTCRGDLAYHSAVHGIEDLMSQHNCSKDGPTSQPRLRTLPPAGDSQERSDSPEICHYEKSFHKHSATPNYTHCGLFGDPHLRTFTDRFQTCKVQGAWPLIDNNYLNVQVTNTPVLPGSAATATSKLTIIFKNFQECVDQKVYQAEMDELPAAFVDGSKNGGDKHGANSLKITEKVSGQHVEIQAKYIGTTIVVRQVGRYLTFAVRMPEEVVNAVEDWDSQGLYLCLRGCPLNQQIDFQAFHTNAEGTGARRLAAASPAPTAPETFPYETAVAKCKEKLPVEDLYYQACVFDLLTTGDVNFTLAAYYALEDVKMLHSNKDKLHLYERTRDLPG
Test: SPR (BIAcore);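 note: Anti-HJV antibodies tested for binding against soluble human RGMa by surface plasmon resonance on a BIAcore instrument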
Kindly supply the reported pKd values for the records listed here.
One number for each entry, as −log10 of the molar value.

Below, 4 binders whose answers are already recorded.
Binder	pKd
hHA-005 (antibody, human IgG1, kappa, L234A L235A, V domains shown, hIgG1 L234A, L235A, kappa) VH: EVQLVESGGGLVQPGGSLRLSCAASGFTFSNYGMNWIRQAPGKGLEWIGMIYYDSSEKHYADSVKGRFTISRDNSKNTLYLQMNSLRAEDTAVYYCAKGTTPDYWGQGTMVTVSS VL: DVVLTQSPLSLPVTLGQPASISCRSSQSLEESDGYTFLEWFQQRPGQSPRLLIYDVSERFSGVPDRFSGSGSGTDFTLKISRVEAEDVGVYYCFQATYDPLTFGQGTKLEIKR	9.89
hHA-004 (antibody, human IgG1, kappa, L234A L235A, V domains shown, hIgG1 L234A, L235A, kappa) VH: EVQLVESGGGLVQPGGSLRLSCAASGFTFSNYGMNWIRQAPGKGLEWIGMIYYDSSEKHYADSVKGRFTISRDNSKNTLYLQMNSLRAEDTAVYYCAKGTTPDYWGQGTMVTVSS VL: DVVLTQSPLSLPVTLGQPASISCRSSQSLESSDGDTFLEWFQQRPGQSPRLLIYDVSTRFSGVPDRFSGSGSGTDFTLKISRVEAEDVGVYYCFQVTHDPVTFGQGTKLEIKR	10.82
hHA-001 (antibody, human IgG1, kappa, L234A L235A, V domains shown, hIgG1 constant region with L234A, L235A, kappa) VH: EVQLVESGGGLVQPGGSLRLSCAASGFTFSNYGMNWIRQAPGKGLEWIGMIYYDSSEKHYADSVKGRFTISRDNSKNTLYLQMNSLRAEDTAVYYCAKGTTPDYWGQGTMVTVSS VL: DVVLTQSPLSLPVTLGQPASISCRSSQSLETSDGDTFLEWFQQRPGQSPRLLIYEVSTRFSGVPDRFSGSGSGTDFTLKISRVEAEDVGVYYCFQVTHDPMTFGQGTKLEIKR	10.42
hHA-003 (antibody, human IgG1, kappa, L234A L235A, V domains shown, hIgG1 L234A, L235A, kappa) VH: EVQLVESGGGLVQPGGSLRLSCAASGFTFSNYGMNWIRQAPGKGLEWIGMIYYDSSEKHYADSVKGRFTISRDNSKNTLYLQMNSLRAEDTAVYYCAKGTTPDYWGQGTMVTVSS VL: DVVLTQSPLSLPVTLGQPASISCRSSQSLETSDGDTFLEWFQQRPGQSPRLLIYEVSNRFSGVPDRFSGSGSGTDFTLKISRVEAEDVGVYYCFQVTHDPVTFGQGTKLEIKR	9.92

[ask] I'd like to know its pKd. The binder in question is hHA-009 (antibody, human IgG1, kappa, L234A L235A, V domains shown, hIgG1 L234A, L235A, kappa) VH: EVQLVESGGGLVQPGGSLRLSCAASGFTFSNYGMNWVRQAPGKGLEWIGMIYYDSSEKHYADSVKGRFTISRDNSKNTLYLQMNSLRAEDTAVYYCAKGTTPDYWGQGTMVTVSS VL: DVVLTQSPLSLPVTLGQPASISCRSSQSLADSDGDTFLHWFQQRPGQSPRLLIYAVSHRFSGVPDRFSGSGSGTDFTLKISRVEAEDVGVYYCFQATHDPVTFGQGTKLEIKR
[reply] 9.33

Data provenance is patent US20240417458A1.
